# Tested System: human LPAAT-β (Homo sapiens, UniProt O15120)
# Construct: the full-length human LPAAT-β cDNA was amplified by PCR; poly-histidine tag (N); the membrane fraction was used as the enzyme
# Sequence (O15120 24-278): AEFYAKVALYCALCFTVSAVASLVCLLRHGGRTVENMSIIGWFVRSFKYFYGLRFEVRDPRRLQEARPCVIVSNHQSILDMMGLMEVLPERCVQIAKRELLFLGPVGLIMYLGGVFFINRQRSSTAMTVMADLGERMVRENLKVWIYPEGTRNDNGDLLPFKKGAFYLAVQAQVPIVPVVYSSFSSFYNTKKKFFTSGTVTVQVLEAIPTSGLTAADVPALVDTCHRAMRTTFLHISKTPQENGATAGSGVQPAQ
# Assay Name: LPAAT-β cell-free assay
# Condition Description: Sf9 cell membrane overexpressing recombinant LPAAT-β
# Source text: For the construction of Baculovirus expression vectors, the full-length human LPAAT-β cDNA was amplified by PCR from the DNA template pCE9.LPAAT-β (West et al., DNA Cell Bid. 16.691-701 (1997)) using the primers 5′-[…] […] […]-3′ (olpb1F; SEQ ID NO:1) and 5′-[…] […] LPAAT-β catalyzes the transfer of an acyl group from a donor such as acyl-CoA to LPA. […] The absorbance at 405 nm, measured using a spectrophotometer plate reader, is proportional to the activity of LPAAT-2 in the sample. […]
Assign pIC50 to each entry below.
Give bare numbers, as −log10 of the molar value.

// below: answered compounds
compound="COc1ccc(Cl)cc1-c1cc(Nc2ccc(Br)cc2)nc(C)n1 [Example 39]" tested_system="human LPAAT-β (Homo sapiens, UniProt O15120)" property=pIC50 endpoint_result=6.74
compound="Cc1ccc(Cl)cc1-c1cc(Nc2ccc3[nH]nnc3c2)nc(N)n1 [Example 125]" tested_system="human LPAAT-β (Homo sapiens, UniProt O15120)" property=pIC50 endpoint_result=7.05
compound="Cc1ccc(Br)cc1-c1cc(Nc2ccc(CCO)cc2)nc(N)n1 [Example 100]" tested_system="human LPAAT-β (Homo sapiens, UniProt O15120)" property=pIC50 endpoint_result=7.31
compound="Nc1nc(Nc2ccc(C(F)(F)F)cc2)cc(-c2cc(Br)ccc2OCc2ccccc2)n1 [Example 153]" tested_system="human LPAAT-β (Homo sapiens, UniProt O15120)" property=pIC50 endpoint_result=8.22
compound="CCCCOc1ccc(Br)cc1-c1cc(Nc2ccc(Cl)cc2)nc(N)n1 [Example 148]" tested_system="human LPAAT-β (Homo sapiens, UniProt O15120)" property=pIC50 endpoint_result=8.30
compound="CCOc1ccc(Cl)cc1-c1cc(Nc2ccc(C(C)=O)cc2)nc(N)n1 [Example 121]" tested_system="human LPAAT-β (Homo sapiens, UniProt O15120)" property=pIC50 endpoint_result=7.31
compound="Nc1nc(Nc2ccc(O)cc2)cc(-c2cc(Cl)ccc2Cl)n1 [Example 17]" tested_system="human LPAAT-β (Homo sapiens, UniProt O15120)" property=pIC50 endpoint_result=6.62
compound="CCOc1ccc(Br)cc1-c1cc(Nc2ccc(CO)cc2)nc(N)n1 [Example 62]" tested_system="human LPAAT-β (Homo sapiens, UniProt O15120)" property=pIC50 endpoint_result=7.10

Your task in this section: give pIC50 for each listed record.
1. CCOc1ccc(I)cc1-c1cc(Nc2ccc(N=[N+]=[N-])cc2)nc(N)n1 [Example 140]
2. Nc1nc(Nc2ccc(Cl)cc2)cc(-c2ccccc2C(F)(F)F)n1 [Example 105]
3. Cc1ccc(Nc2cc(-c3cc(Cl)ccc3Cl)nc(N)n2)cc1 [Example 15]

[out]
7.00
5.74
7.30

Your task in this section: give pIC50 for each listed record.
1. CC(=NO)c1ccc(Nc2cc(-c3cc(Cl)ccc3C)nc(N)n2)cc1 [Example 104]
2. COc1ccc(Br)cc1-c1cc(Nc2ccc(Cl)cc2)nc(N)n1 [Example 142]
3. CCOc1ccc(Cl)cc1-c1cc(Nc2ccccc2Cl)nc(N)n1 [Example 117]
4. Cc1ccc(Cl)cc1-c1cc(Nc2ccc(Br)cc2)nc(N)n1 [Example 30]
5. CCOc1ccc(Br)cc1-c1cc(Nc2ccc(C(=O)OC)cc2)nc(N)n1 [Example 61]
6. Nc1nc(Nc2ccc(Br)cc2)cc(-c2cc(Br)ccc2OCC(F)(F)F)n1 [Example 91]
7. Cc1ccc(Cl)cc1-c1cc(Nc2ccc3c(c2)C(=O)NC3=O)nc(N)n1 [Example 79]
8. Cc1ccc(Cl)cc1-c1cc(Nc2ccc(Cl)cc2)nc(N)n1 [Example 27]

[out]
1: 6.80; 2: 7.74; 3: 5.31; 4: 7.47; 5: 6.46; 6: 6.72; 7: 6.05; 8: 7.55
